subject-of-test: Ubiquitin carboxyl-terminal hydrolase 28 (Homo sapiens)
assay-explanation: inhibitors of human USP28 deubiquitinase (AID 1645857)
condition: purified USP28, Ub-rhodamine cleavage fluorescence, 30 min; at 25 µM
Out of some 47,000 compounds screened, about 1,400 (3%) were called active. No stated cut-off is given here; in the data, active means inhibition above about 30%; inactive means the rest. The entries come from a sample that favours actives as a whole.
Outcome codes: TRUE for active, FALSE for inactive

[[record]]
compound = "CC1CCN(c2ccc(C(=O)NCc3ccc(F)cc3)cc2[N+](=O)[O-])CC1"
group_label = "FALSE"

[[record]]
compound = "O=C(Nc1ccc2c(c1)OCO2)N1CCCCCC1"
group_label = "FALSE"

[[record]]
compound = "NS(=O)(=O)c1ccc(CNc2nc(CN3CCCCC3)nc3sc4c(c23)CCC4)cc1"
group_label = "FALSE"

[[record]]
compound = "O=C(Cc1ccc(F)cc1)Nc1ccccc1Cc1ccccc1"
group_label = "FALSE"

[[record]]
compound = "Cc1cc(-c2cc(N)n(-c3ccccc3)n2)c(C)n1-c1cccc(C(F)(F)F)c1"
group_label = "FALSE"

[[record]]
compound = "O=C(Nc1ccc2c(c1)OCO2)c1sc2cc(Cl)ccc2c1Cl"
group_label = "FALSE"

[[record]]
compound = "Cc1ccc(NC(=O)Cc2sc(Nc3ccc(C)cc3)nc2O)cc1"
group_label = "TRUE"

[[record]]
compound = "CC(C)(C)C(=O)Nc1ccc(SCc2nnc(-c3ccccc3)o2)cc1"
group_label = "TRUE"

[[record]]
compound = "CCn1c(SCc2cccc(C)c2)nnc1-c1cnccn1"
group_label = "TRUE"

[[record]]
compound = "CCCN(CCC)CCNS(=O)(=O)c1ccc2c(c1)NC(=O)CCS2"
group_label = "FALSE"

[[record]]
compound = "CCCCCCSc1ncnc2c1sc1nc(-c3ccccc3)c3c(c12)CC(C)(C)OC3"
group_label = "FALSE"

[[record]]
compound = "CCC(Cc1ccccc1)NS(=O)(=O)c1ccc2c(c1)NC(=O)CS2 (configuration not stated)"
group_label = "TRUE"

[[record]]
compound = "COc1ccc(NC(=O)CCC(=O)c2ccc3c(c2)OCCO3)cc1S(=O)(=O)Nc1ccc(Cl)cc1"
group_label = "FALSE"

[[record]]
compound = "COc1ccc(/C=C/C(=O)Nc2ccc3c(c2)OCCO3)cc1Br"
group_label = "TRUE"

[[record]]
compound = "COCCCNC(=O)c1cc2c(=O)n3ccccc3nc2n1Cc1ccccc1"
group_label = "FALSE"

[[record]]
compound = "CC(NS(=O)(=O)c1ccc2c(c1)SCC(=O)N2)c1ccccc1 (configuration not stated)"
group_label = "FALSE"

[[record]]
compound = "CNc1nc2c(c(=O)n1C)CN(C(=O)Nc1ccccc1Oc1ccccc1)CC2"
group_label = "FALSE"

[[record]]
compound = "Cc1cc(F)ccc1NC(=O)Cc1n[nH]c(Cc2ccccc2)n1"
group_label = "FALSE"

[[record]]
compound = "COc1ccc(CNC(=O)[C@H](CCSC)NC(=O)[C@@H]2Cc3c([nH]c4ccccc34)C3c4ccccc4C(=O)N32)cc1 (some centres not stated)"
group_label = "FALSE"

[[record]]
compound = "CCCCc1nc2sc3c(SCC(=O)NCc4ccccc4)ncnc3c2c2c1CCC2"
group_label = "TRUE"

[[record]]
compound = "Cn1cc(-c2nc(C(=O)Nc3ccc(F)cc3)cs2)c2cccnc21"
group_label = "FALSE"

[[record]]
compound = "Cc1ccc(-c2nnc(CCC(=O)O)o2)cc1"
group_label = "FALSE"

